Kindly state viability at 28.5 h, 10 µM for each of the entries shown.
Experiment: in vitro
Details: human, hela cells, % viability
Numbers only, in %.

Please review the following examples before continuing.
> print(dat)
                                   compound               quantity.name  observed.result
1  O=C(Nc1ccc(F)cc1)c1ccc(=O)n(CC(=O)N2CCC3(CCCCC3)C2)c1 [CBK286006]  viability at 28.5 h, 10 µM             94.9
2  O=C(O)Cc1cc(C(=O)/C=C/c2c(Cl)cccc2Cl)ccc1O [CBK013106]  viability at 28.5 h, 10 µM               99
3  O=c1ccc(-c2ccc(F)cc2)nn1CC1CCNCC1 [CBK284216]  viability at 28.5 h, 10 µM             86.5
4  Cc1ccc(Cl)cc1N(Cc1ccc(C(=O)N2CCC(C)CC2)cc1)S(=O)(=O)c1ccccc1 [CBK033646]  viability at 28.5 h, 10 µM              107

Hey, quick one: what's viability at 28.5 h, 10 µM for each of these?
1. Cc1ccc(NC(=O)c2ccc(-c3ccccc3)cc2)c(OC(=O)c2ccc(-c3ccccc3)cc2)c1 [CBK261347]
2. Cc1cc(C(=O)CSc2nnc(C3CC3)[nH]2)c(C)n1-c1cccc(C(F)(F)F)c1 [CBK295310]
3. O=C(COc1ccc2ccccc2c1)Oc1ccc2ccccc2c1 [CBK264885]
4. COc1ccccc1OCCO [CBK000949]

98.9
80.6
110
98.3

Query viability at 28.5 h, 10 µM for Fc1ccc(-c2[nH]c3ncccc3c2CN2CCOCC2)cc1 [CBK285310]
111
